TEST TARGET: human GLP-1R (Homo sapiens)
METHOD: GLP-1R CHO cell β-arrestin recruitment assay (PathHunter)
Type: cell-based
Design: host or cells: CHO-K1
DETAILS: CHO-K1 cells; % stimulation with DMSO and GLP-1(7-36) as minimum and maximum controls; read-out: Emax % (SEM, n), hGLP1R induced β-Arrestin-2 recruitment
Sequence (P43220 24-463): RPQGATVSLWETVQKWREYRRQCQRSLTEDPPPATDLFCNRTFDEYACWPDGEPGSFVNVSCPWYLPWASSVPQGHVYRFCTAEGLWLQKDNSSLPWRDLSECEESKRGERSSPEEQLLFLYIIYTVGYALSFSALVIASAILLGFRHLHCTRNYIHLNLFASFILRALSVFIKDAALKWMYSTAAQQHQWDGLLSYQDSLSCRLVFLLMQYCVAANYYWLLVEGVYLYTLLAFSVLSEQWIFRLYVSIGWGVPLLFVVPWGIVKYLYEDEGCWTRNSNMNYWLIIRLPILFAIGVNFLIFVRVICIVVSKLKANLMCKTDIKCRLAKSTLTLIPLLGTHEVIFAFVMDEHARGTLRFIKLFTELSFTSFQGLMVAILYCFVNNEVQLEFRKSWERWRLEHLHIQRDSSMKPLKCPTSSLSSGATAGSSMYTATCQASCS
Sequence (P32121 whole entry partner): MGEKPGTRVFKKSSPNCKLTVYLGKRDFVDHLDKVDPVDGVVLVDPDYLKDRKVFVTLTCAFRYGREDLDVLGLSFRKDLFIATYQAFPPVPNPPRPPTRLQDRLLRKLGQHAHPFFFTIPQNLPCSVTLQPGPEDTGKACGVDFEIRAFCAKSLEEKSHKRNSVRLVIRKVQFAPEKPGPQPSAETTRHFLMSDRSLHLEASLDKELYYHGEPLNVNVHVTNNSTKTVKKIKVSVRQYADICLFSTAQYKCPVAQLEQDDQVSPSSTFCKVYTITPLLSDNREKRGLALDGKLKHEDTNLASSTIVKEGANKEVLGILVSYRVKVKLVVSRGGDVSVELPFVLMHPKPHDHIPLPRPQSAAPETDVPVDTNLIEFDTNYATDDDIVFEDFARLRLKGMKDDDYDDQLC
RECORDED ENDPOINT: Emax (%)

{"columns": ["ENTRY SMILES", "Emax, %"],
 "data": [
  ["O=C(O)c1ccc2nc(Cc3ccc4cc3OCCCc3cc(Cl)ccc3COc3cccc-4n3)n(C[C@@H]3CCO3)c2c1", 34],
  ["N#Cc1ccc2c(c1)CCCOc1cc(c(F)cc1Cc1nc3c(F)cc(C(=O)O)cc3n1C[C@@H]1CCO1)-c1cccc(n1)OC2", 52.7]
]}

[I] N#Cc1ccc2c(c1)CCCOc1cc(c(F)cc1Cc1nc3ccc(C(=O)O)cc3n1C[C@@H]1CCO1)-c1cccc(n1)OC2
[II] COc1cc(-c2nnn[nH]2)cc2c1nc(Cc1ccc3cc1OCCCc1cc(C#N)ccc1COc1cccc-3n1)n2C[C@@H]1CCO1
Return label of the item with the larger Emax. Candidates: I , II . Indicate which entry you chose by stating its label.
I
(I: 42.9%, II: 9.47%)

* * *

TEST TARGET: human GLP-1R (Homo sapiens)
METHOD: Human GLP-1 Receptor HEK293 cell cAMP assay, 104 fmol/mg GLP-1R expression density
Format: cell-based
Parameters: expressed in transfected cells; host or cells: HEK293 clonal cell line
DETAILS: HEK293 cell line with 104 fmol/mg expression density of GLP-1R; percent of maximal response to GLP-1(7-36)NH2; arithmetic mean; read-out: Emax % (SEM, n), intracellular cAMP response
Sequence (P43220 24-463): as the sequence (P43220 24-463) above
RECORDED ENDPOINT: Emax (%)

{"columns": ["ENTRY SMILES", "TEST TARGET", "UNIT DESCRIPTOR", "REPORTED MEASUREMENT"],
 "data": [
  ["O=C(O)c1cc(OCCO)c2nc(Cc3ccc4cc3COCCc3cc(Cl)ccc3COc3cccc-4n3)n(C[C@@H]3CCO3)c2c1", "human GLP-1R (Homo sapiens)", "%", 84.8]
]}

[a] COc1cc(C(=O)O)cc2c1nc(Cc1ccc3cc1OCCCc1cc(C#N)ccc1COc1cccc-3n1)n2Cc1ncco1
[b] Cc1nc(CCOc2cc(C(=O)O)cc3c2nc(Cc2ccc4cc2OCCCc2cc(C#N)ccc2COc2cccc-4n2)n3C[C@@H]2CCO2)co1
Between a and b , which one has the lower reported Emax value? Indicate which entry you chose by stating its label.
b
(b: 58%, a: 83.7%)

* * *

TEST TARGET: human GLP-1R (Homo sapiens)
METHOD: Human GLP-1 Receptor HEK293 cell cAMP assay, 104 fmol/mg GLP-1R expression density
Format: cell-based
Set-up: expressed in transfected cells; host or cells: HEK293 clonal cell line
DETAILS: HEK293 cell line with 104 fmol/mg expression density of GLP-1R; percent of maximal response to GLP-1(7-36)NH2; arithmetic mean; read-out: Emax % (SEM, n), intracellular cAMP response
RECORDED ENDPOINT: Emax (%)

{"columns": ["COMPOUND", "Emax [%]"],
 "data": [
  ["COCCOc1cc(C(=O)O)cc2c1nc(Cc1cc(F)c3cc1COCc1cc(Cl)ccc1COc1cccc-3n1)n2C[C@@H]1CCO1 [Example 67]", 91.6],
  ["CN(C)C(=O)c1ccc(-c2ccc3c(c2)CCCOc2cc(ccc2Cc2nc4ccc(C(=O)O)cc4n2C[C@@H]2CCO2)-c2cccc(n2)OC3)cc1 [Example 77]", 83],
  ["N#Cc1ccc2c(c1)CCCOc1cc(ccc1Cc1nc3c(F)cc(C(=O)O)cc3n1C[C@@H]1CCO1)-c1cccc(n1)OC2 [Example 7]", 92.9],
  ["N#Cc1ccc2cc1CCCOc1cc(c(F)cc1Cc1nc3ccc(C(=O)O)cc3n1C[C@@H]1CCO1)-c1cccc(n1)OC2 [Example 10]", 88.9],
  ["N#Cc1ccc2c(c1)CCCOc1cc(c(F)cc1Cc1nc3ccc(C(=O)O)cc3n1C[C@@H]1CCO1)-c1cccc(n1)OC2 [Example 1]", 71],
  ["O=C(O)c1ccc2nc(Cc3ccc4cc3OCCCc3cc(-n5ccnc5)ccc3COc3cccc-4n3)n(C[C@@H]3CCO3)c2c1 [Example 73]", 84.1]
]}

Origin of measurements: patent US20240343740A1
